Structures can show the parent of a compound that is named as a salt.
Hi! I'm sharing some pIC50 results obtained with purified aminopeptidase obtained from hog kidney (leucineaminopeptidase) (Sus scrofa).
Sequence (P28839 whole entry): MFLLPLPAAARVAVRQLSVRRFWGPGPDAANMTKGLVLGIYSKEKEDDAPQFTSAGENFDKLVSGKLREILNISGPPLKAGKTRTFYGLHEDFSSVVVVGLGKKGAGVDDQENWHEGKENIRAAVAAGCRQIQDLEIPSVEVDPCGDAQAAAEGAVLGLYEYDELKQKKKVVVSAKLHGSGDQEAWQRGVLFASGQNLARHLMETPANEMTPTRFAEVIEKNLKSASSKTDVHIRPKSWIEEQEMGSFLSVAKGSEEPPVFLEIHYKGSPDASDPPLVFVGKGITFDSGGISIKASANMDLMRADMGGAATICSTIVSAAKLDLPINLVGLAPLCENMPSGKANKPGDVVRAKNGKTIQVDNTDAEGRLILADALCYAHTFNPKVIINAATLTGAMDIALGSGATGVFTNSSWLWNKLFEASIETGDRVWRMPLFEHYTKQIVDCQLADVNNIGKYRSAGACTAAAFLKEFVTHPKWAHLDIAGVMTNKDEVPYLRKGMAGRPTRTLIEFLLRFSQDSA
When answering, recall that pIC50 equals minus log10 of the concentration in mol/L, and write that number alone.

>  <compound>
CSc1ccc(C[C@@H](N)[C@H](O)C(=O)N[C@@H](CC(C)C)C(=O)O)cc1 [Example 11, hydrobromide]

>  <pIC50>
7.96

$$$$

Then there is this compound:
Challenge: Fill in: pIC50 of CC(C)C[C@H](NC(=O)[C@@H](O)[C@H](N)Cc1ccc(S(C)(=O)=O)cc1)C(=O)O is ___
Response given: 8.00
